Reported MIC values are given for each entry in this list.
test system: Pseudomonas aeruginosa; test: Antimicrobial activity against Pseudomonas aeruginosa after 24 hrs […]; type: functional
Report only the number, with the unit µg/mL understood.

Here's what some known entries look like.
{"structure_as_smiles": "Cc1ccc2nc(-c3ccc4nc(-c5ccc(Br)cc5)c(Nc5ccccc5)n4c3)[nH]c2c1", "readout": "MIC", "obs_value": 13.4}
{"structure_as_smiles": "O=[N+]([O-])c1ccc(-c2cnc(-c3cnc4nc(-c5ccc(Br)cc5)c(Nc5ccccc5)n4c3)[nH]2)cc1", "readout": "MIC", "obs_value": 7.81}
{"structure_as_smiles": "Fc1ccc(-c2nnc(-c3cnc4nc(-c5ccc(Br)cc5)c(Nc5ccccc5)n4c3)o2)cc1", "readout": "MIC", "obs_value": 1.87}

Query compound follows.
(Q) Query: MIC; subject: O=[N+]([O-])c1ccc(-c2nnc(-c3ccc4nc(-c5ccc(Br)cc5)c(Nc5ccccc5)n4c3)o2)cc1
(A) 5.45

* * *

tested on: Pseudomonas aeruginosa; assay: Antimicrobial activity against Pseudomonas aeruginosa after 24 hrs […]; assay type: functional
Listed next: entries and their corresponding MIC.
Quick note: give the figure in µg/mL, leave out the unit.

{"structure_as_smiles": "Fc1ccc2nc(-c3cnc4nc(-c5ccc(Oc6ccccc6)cc5)c(Nc5ccccc5)n4c3)[nH]c2c1", "obs_value": 7.38}
{"structure_as_smiles": "O=[N+]([O-])c1ccc2nc(-c3ccc4nc(-c5ccc(Br)cc5)c(Nc5ccccc5)n4c3)[nH]c2c1", "obs_value": 14.5}
{"structure_as_smiles": "Clc1ccc2nc(-c3cnc4nc(-c5ccc(Br)cc5)c(Nc5ccccc5)n4c3)[nH]c2c1", "obs_value": 2.55}

(Q) For the molecule Cc1ccc(-c2nc3ccc(-c4nc5ccc(Br)cc5[nH]4)cn3c2Nc2ccccc2)cc1 , what MIC is on record?
(A) 5.22

* * *

system: Staphylococcus aureus; experiment: Antimicrobial activity against Staphylococcus aureus after 24 hrs […]; format: functional
Quick list: log10(MIC) per entry.
Values reflect log10 of reported MIC (µg/mL).

Record excerpt, results attached:
{"compound": "CC1(C)S[C@@H]2[C@H](NC(=O)[C@H](N)c3ccc(O)cc3)C(=O)N2[C@H]1C(=O)O [AMOXICILLIN]", "log10(MIC)": 1.12}
{"compound": "Brc1ccc(-c2nc3ccc(-c4ncc(-c5ccc(Oc6ccccc6)cc5)[nH]4)cn3c2Nc2ccccc2)cc1", "log10(MIC)": 1.77}
{"compound": "Fc1ccc(-c2nnc(-c3ccc4nc(-c5ccc(Br)cc5)c(Nc5ccccc5)n4c3)o2)cc1", "log10(MIC)": -0.29}
{"compound": "O=[N+]([O-])c1ccc(-c2nnc(-c3ccc4nc(-c5ccc(Br)cc5)c(Nc5ccccc5)n4c3)o2)cc1", "log10(MIC)": 0.80}
{"compound": "Brc1ccc(-c2cnc(-c3ccc4nc(-c5ccc(Oc6ccccc6)cc5)c(Nc5ccccc5)n4c3)[nH]2)cc1", "log10(MIC)": 1.01}

(Q) Form entry - test system: Staphylococcus aureus; read-out: log10(MIC); compound: Fc1ccc2nc(-c3cnc4nc(-c5ccc(Oc6ccccc6)cc5)c(Nc5ccccc5)n4c3)[nH]c2c1
(A) 0.97

(Q) GET /values?readout=log10(MIC)&system=Staphylococcus aureus&item= Cc1ccc(-c2nc3ncc(-c4nnc(-c5ccc(F)cc5)o4)cn3c2Nc2ccccc2)cc1
(A) 0.74

(Q) # query: log10(MIC) | item Cc1ccc(-c2nc3ccc(-c4nc5ccc(Br)cc5[nH]4)cn3c2Nc2ccccc2)cc1 | system: Staphylococcus aureus
(A) 0.71

* * *

Measured MIC of individual entries
system: Escherichia coli; assay: Antimicrobial activity against Escherichia coli after 24 hrs […]; assay type: functional
Give your result in mg/L as a bare value.

# annotated cases, reported MIC shown
{"structure_as_smiles": "O=[N+]([O-])c1ccc(-c2nnc(-c3cnc4nc(-c5ccc(Br)cc5)c(Nc5ccccc5)n4c3)o2)cc1", "MIC (mg/L)": 3.12}
{"structure_as_smiles": "Fc1ccc(-c2nnc(-c3ccc4nc(-c5ccc(Br)cc5)c(Nc5ccccc5)n4c3)o2)cc1", "MIC (mg/L)": 1.11}

(Q) # input molecule: Cc1ccc2nc(-c3ccc4nc(-c5ccc(Br)cc5)c(Nc5ccccc5)n4c3)[nH]c2c1 ; wanted: its MIC
(A) 10.3

(Q) Field request: MIC | item: O=[N+]([O-])c1ccc(-c2cnc(-c3cnc4nc(-c5ccc(Br)cc5)c(Nc5ccccc5)n4c3)[nH]2)cc1
(A) 5.33

(Q) If you can, please state the reported MIC value of O=[N+]([O-])c1ccc(-c2nnc(-c3ccc4nc(-c5ccc(Br)cc5)c(Nc5ccccc5)n4c3)o2)cc1 .
(A) 7.37

(Q) Consider the molecule shown here: CC1(C)S[C@@H]2[C@H](NC(=O)[C@H](N)c3ccc(O)cc3)C(=O)N2[C@H]1C(=O)O What is its recorded MIC?
(A) 16.4

(Q) Look up MIC for this molecule: Fc1ccc2nc(-c3cnc4nc(-c5ccc(Br)cc5)c(Nc5ccccc5)n4c3)[nH]c2c1
(A) 2.29

(Q) For the molecule shown here, Fc1ccc(-c2cnc(-c3cnc4nc(-c5ccc(Br)cc5)c(Nc5ccccc5)n4c3)[nH]2)cc1 , give the reported MIC.
(A) 1.15
